EC50 values by entry
target.entity: FXR (Homo sapiens)
Sequence (Q96RI1 1-486): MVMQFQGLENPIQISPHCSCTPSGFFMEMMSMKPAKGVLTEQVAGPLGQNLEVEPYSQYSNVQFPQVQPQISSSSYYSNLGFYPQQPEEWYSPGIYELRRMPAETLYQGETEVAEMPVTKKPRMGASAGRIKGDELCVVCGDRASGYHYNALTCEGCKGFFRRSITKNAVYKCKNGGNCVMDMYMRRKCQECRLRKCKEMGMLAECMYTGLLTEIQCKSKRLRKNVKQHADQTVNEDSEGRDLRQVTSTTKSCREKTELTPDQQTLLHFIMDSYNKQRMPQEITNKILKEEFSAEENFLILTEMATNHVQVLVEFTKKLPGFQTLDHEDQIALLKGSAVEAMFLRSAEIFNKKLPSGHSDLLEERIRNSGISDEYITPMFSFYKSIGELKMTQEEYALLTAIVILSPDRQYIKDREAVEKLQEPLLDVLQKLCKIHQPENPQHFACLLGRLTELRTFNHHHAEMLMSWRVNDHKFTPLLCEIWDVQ
protocol.details: FXR agonist transactivation assay (luciferase reporter)
experimental.conditions: transiently transfected cells, 18 h stimulation with test compound, luciferase normalized to Renilla

{"smiles.representation": "CC(C)OC(=O)C1=CN(C(=O)c2ccc(F)c(F)c2)CC(C)(C)c2c1[nH]c1cc(Cl)cnc21", "observed.result": "< 1 µM"}
{"smiles.representation": "COc1nc2c3c([nH]c2cc1Cl)C(C(=O)OC(C)C)=CN(C(=O)c1ccc(F)c(F)c1)CC3(C)C", "observed.result": "< 1 µM"}
{"smiles.representation": "CCOC(=O)C1=CN(C(=O)c2ccc(F)c(F)c2)CC(C)(C)c2c1[nH]c1ncccc21", "observed.result": "< 1 µM"}

Q: // lookup EC50 for `COc1ccc2[nH]c3c(c2n1)C(C)(C)CN(C(=O)c1ccc(F)cc1)C=C3C(=O)OC(C)C`
Result: < 1 µM

Q: // lookup EC50 for `CC(C)OC(=O)C1=CN(C(=O)c2ccc(F)c(F)c2)CC(C)(C)c2c1[nH]c1ccc(OCCO)nc21`
Result: < 1 µM

Q: // lookup EC50 for `CC(C)OC(=O)C1=CN(C(=O)c2ccc(F)cc2)CC(C)(C)c2c1[nH]c1ncc(Cl)cc21`
Result: 1 to 10 µM

Q: // lookup EC50 for `CC(C)OC(=O)C1=CN(C(=O)c2ccc(F)c(F)c2)CC(C)(C)c2c1[nH]c1ncc(Cl)cc21`
Result: < 1 µM

Q: // lookup EC50 for `CC(C)OC(=O)C1=CN(C(=O)c2ccc(F)c(F)c2)CC(C)(C)c2c1[nH]c1cc(F)cnc21`
Result: < 1 µM

Q: // lookup EC50 for `CC(C)OC(=O)C1=CN(C(=O)c2ccc(Cl)c(Cl)c2)CC(C)(C)c2c1[nH]c1ncc(Cl)cc21`
Result: 1 to 10 µM

Q: // lookup EC50 for `CC(C)OC(=O)C1=CN(C(=O)c2ccc(F)c(F)c2)CC(C)(C)c2c1[nH]c1cc(OCCO)c(Cl)nc21`
Result: 1 to 10 µM

Q: // lookup EC50 for `COc1ccc2[nH]c3c(c2n1)C(C)(C)CN(C(=O)c1ccc(F)c(F)c1)C=C3C(=O)OC(C)C`
Result: < 1 µM

Q: // lookup EC50 for `COc1ccc2[nH]c3c(c2n1)C(C)(C)CN(C(=O)c1ccc(OCCN2CCOCC2)cc1)C=C3C(=O)OC(C)C`
Result: < 1 µM

Q: // lookup EC50 for `CC(C)OC(=O)C1=CN(C(=O)c2ccc(F)c(F)c2)CC(C)(C)c2c1[nH]c1ncc(F)cc21`
Result: < 1 µM

Q: // lookup EC50 for `CC(C)OC(=O)C1=CN(C(=O)c2ccc(F)c(F)c2)CC(C)(C)c2c1[nH]c1ncccc21`
Result: < 1 µM

Q: // lookup EC50 for `CC(C)OC(=O)C1=CN(C(=O)c2ccc(F)c(F)c2)CC(C)(C)c2c1[nH]c1cccnc21`
Result: < 1 µM

Q: // lookup EC50 for `CC(C)NC(=O)C1=CN(C(=O)c2ccc(F)c(F)c2)CC(C)(C)c2c1[nH]c1cc(Cl)cnc21`
Result: < 1 µM

Q: // lookup EC50 for `CCOC(=O)C1=CN(C(=O)c2ccc(F)c(F)c2)CC(C)(C)c2c1[nH]c1cccnc21`
Result: < 1 µM
